The origin of these recorded values is patent US8063225B2.

Target: Jak2 (Homo sapiens, UniProt O60674)
Sequence (O60674 849-1124 limits assumed, species assumed): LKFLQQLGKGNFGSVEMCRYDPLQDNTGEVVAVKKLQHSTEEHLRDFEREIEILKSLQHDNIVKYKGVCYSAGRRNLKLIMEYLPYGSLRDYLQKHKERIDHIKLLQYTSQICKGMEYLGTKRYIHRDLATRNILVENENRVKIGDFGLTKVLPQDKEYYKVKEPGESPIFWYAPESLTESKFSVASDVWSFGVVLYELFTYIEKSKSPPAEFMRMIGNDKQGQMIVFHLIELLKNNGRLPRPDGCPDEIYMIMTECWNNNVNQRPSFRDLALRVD
pIC50: −log10 of the molar value.
READOUT LABEL: pIC50

Here is how some compounds turned out for pIC50.
COMPOUND	ASSAYED TARGET	MEASURED VALUE
COC[C@@H](C)N1C(=O)c2cc3nc(-c4c(NC[C@@H](O)c5cccc(Cl)c5)cc[nH]c4=O)[nH]c3cc2C1=O	Jak2 (Homo sapiens, UniProt O60674)	< 4.82
Cc1ccc(F)c(OC[C@H](O)CNc2cc[nH]c(=O)c2-c2nc3cc4c(cc3[nH]2)C(=O)N(C2CCN(C)CC2)C4)c1Cl	Jak2 (Homo sapiens, UniProt O60674)	> 6.30
Cc1ccc(OC[C@H](O)CNc2ccnc(O)c2-c2nc3cc4c(cc3[nH]2)C(=O)N([C@@H]2CCCN(C)C2)C4=O)c(C)c1	Jak2 (Homo sapiens, UniProt O60674)	< 4.82

Below is a list of compounds. For each, state its recorded pIC50.
1. CN(C)CC(C)(C)CN1C(=O)c2cc3nc(-c4c(NCC(O)COc5cccc(Cl)c5)ccnc4O)[nH]c3cc2C1=O (centres unmarked)
2. Cc1ccc(Cl)c(C)c1OC[C@H](O)CNc1cc[nH]c(=O)c1-c1nc2cc3c(cc2[nH]1)C(=O)N(C1CCN(C)CC1)C3=O
3. O=C1c2cc3nc(-c4c(NC[C@@H](O)c5cccc(Cl)c5)cc[nH]c4=O)[nH]c3cc2C(=O)N1CCCO

Result:
4.82 to 5.30
5.30 to 6.30
5.30 to 6.30

Below is a list of compounds. For each, state its recorded pIC50.
1. O=C1c2cc3nc(-c4c(NC[C@@H](O)COc5c(F)ccc(Cl)c5F)cc[nH]c4=O)[nH]c3cc2C(=O)N1C1CCN(CCCO)CC1
2. Cc1ccc(OC[C@H](O)CNc2cc[nH]c(=O)c2-c2nc3cc4c(cc3[nH]2)C(=O)N(C2CCN(CCO)CC2)C4=O)c(C)c1

Result:
["5.30 to 6.30", "5.30 to 6.30"]
